System: Wolbachia pipientis
Assay: Anti-Wolbachia Cell-Based Screen
Assay type: functional
Parameters: scale not given: in the data most compounds retested in dose-response had high values
Details: 5 µM
Out of some 48,000 compounds screened, about 13,000 (27%) showed an effect of 50% or more. The list shows a part of the results.
measurement_kind: Percent Effect (%)
Write it as a number; the unit % goes unstated.

Specify measured Percent Effect for CCNC(=O)C1CCCN(C(=O)Nc2cc(C#N)ccc2OCC)C1 (centres undefined) .
2.708

Specify measured Percent Effect for COCCCNC(=O)CN(C)C(=O)c1cc(C)ccc1O .
-8.655

Specify measured Percent Effect for COCCCNC(=O)CN(C)C(C)c1nc(C)no1 (centres undefined) .
131.6

Specify measured Percent Effect for CCOc1ccc(C#N)cc1NCC(=O)Nc1cc(C)no1 .
4.952

Specify measured Percent Effect for COCCCNc1c(-c2ccccc2)c(=O)c1=O .
111.1

Specify measured Percent Effect for CCN(CC)CC1CN(CCc2ccccc2)Cc2nccn2C1.O=C(O)C(F)(F)F.O=C(O)C(F)(F)F (centres undefined) .
77.99

Specify measured Percent Effect for CN(C)CC1CN(Cc2ccsc2)Cc2nccn2C1.O=C(O)C(F)(F)F.O=C(O)C(F)(F)F (centres undefined) .
-11.98

Specify measured Percent Effect for CCN(CC(=O)NCCc1nc(C)no1)Cc1ccc(Cl)cc1 .
-3.181

Specify measured Percent Effect for CCNC(=O)NC(=O)CNc1cc(C#N)ccc1OCC .
107.7

Specify measured Percent Effect for COCCCNc1cc(C(=O)N2CCOCC2)ccc1C .
15.11

Specify measured Percent Effect for COCCCNC(=O)NCc1ccc(C)cc1 .
9.073

Specify measured Percent Effect for CCCNC(=O)CNc1cc(C#N)ccc1OCC .
-1.533

Specify measured Percent Effect for COCCCNC(=O)Cc1cc(-c2ccccc2)on1 .
-3.078

Specify measured Percent Effect for CN(C)CC1CN(Cc2cccc(C#N)c2)Cc2nccn2C1.O=C(O)C(F)(F)F.O=C(O)C(F)(F)F (centres undefined) .
95.93

Specify measured Percent Effect for CC(O)CNC(=O)NCc1cccnc1OC1CCCC1 (centres undefined) .
3.42

Specify measured Percent Effect for COc1ccc(Br)cc1CN(C)C(C)c1nc(C(C)C)no1 (centres undefined) .
18.35

Specify measured Percent Effect for O=C(Cc1ccccc1)N1Cc2nccn2CC(CN2CCCC2)C1.O=C(O)C(F)(F)F (centres undefined) .
14.72

Specify measured Percent Effect for CCOc1ccc(C#N)cc1NC(=O)N1CCCC(NC(=O)CC)C1 (centres undefined) .
-6.604

Specify measured Percent Effect for COCCCNc1c(-c2ccc(C)cc2)c(=O)c1=O .
103

Specify measured Percent Effect for CCc1noc(C(C)N(C)CC(=O)Nc2ccc(C)cc2)n1 (centres undefined) .
3.049

Specify measured Percent Effect for COC(C)(C)C(=O)N[C@H]1CN(c2ncccc2C(N)=O)C[C@@H]1C(C)C .
2.672

Specify measured Percent Effect for COCCNC(C)c1ccc(-c2cccnc2)cc1 (centres undefined) .
-4.646

Specify measured Percent Effect for CCOc1ccc(C#N)cc1NC(=O)N1CCC(N2CCCC2)C1 (centres undefined) .
-9.106

Specify measured Percent Effect for COCCCNC(=O)CN(C)C(=O)c1cc(C)ccc1N(C)C(C)C .
-2.233

Hey, just so you know, these numbers are from ChEMBL document CHEMBL3988442.
